B1: Osa-1-4 twister ribozyme (parent)
chain: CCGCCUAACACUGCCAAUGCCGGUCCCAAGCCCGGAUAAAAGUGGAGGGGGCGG

# Variants of: B1
# EXPERIMENTAL_DETAILS: self-cleavage, relative activity (ratio to wild type); higher = more cleavage; co-transcriptional
MEASUREMENT_KIND: self-cleavage
One number for each entry.

# VAR, self-cleavage
data = [
    ("G34U U43C", 0.15),
]

For every item in the list below, what is its measured self-cleavage?
1. A29G G54U
2. C21G G49A
3. A7G G44A

1: 0.37; 2: 0.05; 3: 0.13

Data credit: the RNAGym collection of RNA variant scans (doi:10.1002/anie.201605470)
